Measured inhibition values are reported for all entries that follow.
- protocol.description: blocks MITF activity, primary screen, MITF inhibitor project, cell-based, luminescence (AID 2240);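 note: human melanocyte line stably carrying TRPM1 promoter luciferase reporter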
- condition.context: TRPM1 promoter luciferase, 24 h, active compounds read high, concentration not given here
In all, about 37,000 compounds went through this assay and about 100 (0.27%) were called active. The sample as a whole holds a higher share of actives than the screen did.

{"columns": ["compound", "readout.units", "inhibition"],
 "data": [
  ["O=C(CSc1nccc(=O)[nH]1)Nc1ccc([N+](=O)[O-])cc1", "%", -3.55],
  ["Cc1cc(C)c(C)c(Oc2coc3cc(OCC(=O)Nc4ccccc4Cl)ccc3c2=O)c1", "%", -3.54],
  ["C[C@@H]1CN([C@@H](C)CO)C(=O)c2cc(NC(=O)CCN3CCOCC3)ccc2O[C@@H]1CN(C)S(=O)(=O)c1ccccc1", "%", -5.16],
  ["Cc1noc(C)c1NC(=O)Nc1cccc2c1O[C@@H](CN(C)Cc1ccc(C(F)(F)F)cc1)[C@@H](C)CN([C@@H](C)CO)C2=O", "%", 1.59],
  ["COc1cc([N+](=O)[O-])ccc1NC(=S)NCc1cc(C)n(C)n1", "%", -13.2],
  ["C[C@H](CO)N1C[C@H](C)[C@H](CN(C)Cc2ccncc2)Oc2ccc(NS(=O)(=O)c3ccc(F)cc3)cc2CC1=O", "%", -14.1],
  ["Cc1ccc(S(=O)(=O)Nc2ccc3c(c2)C(=O)N([C@@H](C)CO)C[C@@H](C)[C@H](CN(C)Cc2ccc(C(F)(F)F)cc2)O3)cc1", "%", 24.8],
  ["Nc1cc(N)nc(SCC(=O)c2ccc(Br)cc2)n1", "%", -22.1],
  ["C[C@H](CO)N1C[C@H](C)[C@H](CN(C)C(=O)Nc2ccccc2)Oc2ccc(NC(=O)C3CC3)cc2CC1=O", "%", -0.845],
  ["CS(=O)(=O)N(CC(=O)Nc1ccc(Br)cc1)c1cc(Cl)c(Cl)cc1Cl", "%", -6.97],
  ["CCCC1CCC(c2ccc(OC(=O)c3ccco3)cc2)CC1 (stereo not drawn)", "%", -3.57],
  ["Cc1nn(CC(=O)NCc2ccccn2)c(C)c1[N+](=O)[O-]", "%", -12.3],
  ["O=C(CSc1nnc2n1CCCN2)c1ccccc1", "%", -27.2],
  ["O=C(CSc1nccc(=O)[nH]1)Nc1cccc(Br)c1", "%", -6.51],
  ["C[C@H](CO)N1C[C@H](C)[C@H](CN(C)C(=O)Nc2ccccc2)Oc2c(NC(=O)Nc3ccc(C(F)(F)F)cc3)cccc2C1=O", "%", 21.9],
  ["CN(c1ccc(C(=O)NCc2ccccn2)cc1)S(C)(=O)=O", "%", -16],
  ["COc1ccc(S(=O)(=O)Nc2ccc3c(c2)CC(=O)N([C@@H](C)CO)C[C@@H](C)[C@@H](CN(C)C)O3)cc1", "%", -7.94],
  ["C[C@@H]1CN([C@H](C)CO)C(=O)Cc2cc(NC(=O)CCCN(C)C)ccc2O[C@H]1CN(C)S(=O)(=O)c1cccs1", "%", -32]
]}
